Measured remaining activity at 10 µM, listed per entry.
# target-or-system: FER (Homo sapiens)
# Construct: the DNA-tagged SH2 domain concentrations used in this study were <0.1 nM; made in house; host or cells: HEK293 (transient transfection; unpurified extract)
# Sequence (P16591 460-550 limits assumed): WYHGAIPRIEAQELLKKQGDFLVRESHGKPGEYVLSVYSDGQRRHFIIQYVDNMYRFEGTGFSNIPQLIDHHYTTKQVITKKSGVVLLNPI
# experimental-protocol: biochemical
# Format: binding
# run-conditions: primary screen, 10 μM; read-out: percent of DMSO vehicle control
parameter: remaining activity at 10 µM (%)

O=C(CCl)Nc1cccc(CNC(=O)[C@H](Cc2ccc(OP(=O)(O)O)cc2)NC(=O)Cc2ccc(F)cc2)c1 [MN551]; 1.1
O=C(COc1ccc2cc(C(=O)Nc3ccccc3)ccc2c1)NCc1ccc(OP(=O)(O)O)c(OP(=O)(O)O)c1 [Stafib-1]; 10.8
CC(C)(C)[C@H](NC(=O)/C=C/c1ccc(OP(=O)(O)O)cc1)C(=O)N1CCC[C@H]1C(=O)N(c1ccccc1)c1ccc(I)cc1 [STAT6-IN-3]; 10.7
C/C(=C\C(=O)N[C@H](C(=O)N1CCC[C@H]1C(=O)N(c1ccccc1)c1ccc(I)cc1)C(C)(C)C)c1ccc(OP(=O)(O)O)cc1 [STAT6-IN-1]; 8.5
